- ASSAY_TARGET: T1, cell-surface human CD8 (human, UniProt P01732 22-235)
- T1 construct: the cell is named under assay; also called cellular human CD8; CD8 on PC3-CD8 cells
- T1 sequence (P01732 22-235 limits assumed): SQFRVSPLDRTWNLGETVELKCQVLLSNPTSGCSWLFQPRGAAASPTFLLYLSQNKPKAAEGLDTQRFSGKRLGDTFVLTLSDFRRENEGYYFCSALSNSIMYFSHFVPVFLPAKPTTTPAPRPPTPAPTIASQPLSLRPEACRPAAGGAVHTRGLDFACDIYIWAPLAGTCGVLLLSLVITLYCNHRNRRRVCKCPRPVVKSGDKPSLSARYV
- MEASUREMENT_NOTES: flow cytometry, HPB-ALL cells
QUANTITY_KIND: pEC50
pEC50 (log units): -log10 of the concentration in mol/L.

Given the binder IAb_M1b_CD8 IgG2 NH (other, Minibody homodimer with native IgG2 hinge and IgG2 CH3) DVQITQSPSSLSASVGDRVTITCRTSRSISQYLAWYQQKPGKVPKLLIYSGSTLQSGVPSRFSGSGSGTDFTLTISSLQPEDVATYYCQQHNENPLTFGGGTKVEIKGSTSGGGSGGGSGGGGSSEVQLVESGGGLVQPGGSLRLSCAASGFNIKDTYIHFVRQAPGKGLEWIGRIDPANDNTLYASKFQGKATISADTSKNTAYLQMNSLRAEDTAVYYCGRGYGYYVFDHWGQGTLVTVSSERKCCVECPPCPAPPVAGPGQPREPQVYTLPPSREEMTKNQVSLTCLVKGFYPSDIAVEWESNGQPENNYKTTPPMLDSDGSFFLYSKLTVDKSRWQQGNVFSCSVMHEALHNHYTQKSLSLSPGK , what is its reported pEC50? 10.10
